Parameter: pKi. Scope: all listed entries.
test.target: human recombinant 5-HT2C receptor (Homo sapiens (Human), UniProt P28335)
Sequence (P28335 33-458): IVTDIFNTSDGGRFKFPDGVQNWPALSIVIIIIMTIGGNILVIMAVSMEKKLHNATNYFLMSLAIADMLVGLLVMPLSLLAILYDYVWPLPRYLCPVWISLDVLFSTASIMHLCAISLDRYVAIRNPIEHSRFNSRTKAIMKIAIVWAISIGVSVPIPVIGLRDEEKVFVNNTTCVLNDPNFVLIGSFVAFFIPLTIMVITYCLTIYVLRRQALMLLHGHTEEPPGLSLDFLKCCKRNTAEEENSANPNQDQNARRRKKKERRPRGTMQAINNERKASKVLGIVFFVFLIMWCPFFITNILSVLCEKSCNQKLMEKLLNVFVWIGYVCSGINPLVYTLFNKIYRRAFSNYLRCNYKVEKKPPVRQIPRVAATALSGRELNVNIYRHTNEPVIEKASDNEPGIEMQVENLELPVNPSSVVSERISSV
test.name: 5-HT2C receptor binding inhibition test ([3H]-Mesulergine)
experimental.setup: Jump-In HEK cell membrane, [3H]-Mesulergine; read-out: h-5-HT2C Ki
pKi: −log10 of the molar value.

CC(C)COc1ccc(CN(Cc2ccn(C)c2)C(=O)NC2CCN(C)CC2)cc1 [Compound I-040] ... 7.00 to 8.00
COc1ccc(CN(Cc2coc(C)n2)C(=O)OC2CCN(C)CC2)cc1 [Compound I-095] ... 7.00 to 8.00
COCCN1CCC(NC(=O)N(Cc2ccc(OCC(C)C)cc2)Cc2ccn(C)n2)CC1 [Compound I-063] ... 7.00 to 8.00
CC(C)COc1ccc(CN(Cc2cnn(C)n2)C(=O)NC2CCN(C)CC2)cc1F [Compound I-116] ... > 8.00
Cc1ccc(CN(Cc2ccn(C)n2)C(=O)NC2CCN(C)CC2)cc1 [Compound I-038] ... 7.00 to 8.00

# compound CCCCOc1ccc(CN(Cc2coc(C)n2)C(=O)NC2CCN(C)CC2)cc1F [Compound I-087] ; its pKi = > 8.00

# compound Cc1cc(CN(Cc2ccc(OCC(C)C)cc2)C(=O)NC2CCN(C)CC2)no1 [Compound I-039] ; its pKi = 7.00 to 8.00

# compound CC(C)COc1ccc(CN(Cc2cocn2)C(=O)NC2CCN(C)CC2)cc1 [Compound I-035] ; its pKi = 7.00 to 8.00

# compound CC(C)COc1ccc(CN(Cc2ccc(F)cn2)C(=O)NC2CCNCC2)cc1 [Compound I-017] ; its pKi = > 8.00

# compound COc1ccc(CN(Cc2ccn(C)n2)C(=O)NC2CCN(C)CC2)cc1F [Compound I-014] ; its pKi = 7.00 to 8.00

# compound CC(C)COc1ccc(CN(Cc2ccsc2)C(=O)NC2CCN(C)CC2)cc1 [Compound I-002] ; its pKi = 7.00 to 8.00

# compound CC(C)COc1ccc(CN(Cc2ccn(C)n2)C(=O)N[C@H]2CCN(C)C[C@H]2F)cc1 [Compound I-049] ; its pKi = > 8.00

# compound CCCCOc1ccc(CN(Cc2coc(C)n2)C(=O)N[C@H]2CCN(C)CC23CC3)c(F)c1 [Compound I-091] ; its pKi = > 8.00

====

test.target: human recombinant 5-HT2C receptor (Homo sapiens (Human), UniProt P28335)
test.name: 5-HT2C receptor binding inhibition test ([3H]-Mesulergine)
experimental.setup: Jump-In HEK cell membrane, [3H]-Mesulergine; read-out: h-5-HT2C Ki
Parameter: Ki. Scope: all listed entries.

Solved cases below.
CC(C)Oc1ccc(CN(Cc2ccn(C)n2)C(=O)NC2CCN(C)CC2)cc1 ... 10 to 100 nM
COc1ccc(CN(Cc2ccn(C)n2)C(=O)NC2CCN(C)CC2)cc1C ... 100 to 5000 nM

# compound CCCCOc1ccc(CN(Cc2cnn(C)n2)C(=O)N[C@H]2CCN(C)CC23CC3)cc1F ; its Ki = < 10 nM

# compound COc1ccc(CN(Cc2ccc(F)cn2)C(=O)NC2CCN(C)CC2)cc1 ; its Ki = 10 to 100 nM

# compound COc1ccc(CN(Cc2ccn(C)n2)C(=O)NC2CCN(C)CC2)c(F)c1 ; its Ki = 10 to 100 nM

# compound CC(C)COc1ccc(CN(Cc2ccc(C#N)cn2)C(=O)NC2CCN(C)CC2)cc1 ; its Ki = 100 to 5000 nM

# compound CCCOc1ccc(CN(Cc2ccc(F)cn2)C(=O)NC2CCN(C)CC2)cc1 ; its Ki = < 10 nM

====

Parameter: Ki. Scope: all listed entries.
test.target: human recombinant 5-HT2C receptor (Homo sapiens (Human))
test.name: 5-HT2C receptor binding inhibition test ([3H]-Mesulergine)
experimental.setup: Jump-In HEK cell membrane, [3H]-Mesulergine; read-out: h-5-HT2C Ki

Solved cases below.
CC(C)COc1ccc(CN(Cc2ccn(C)n2)C(=O)NCC2CN(C)C2)cc1 [Compound I-059] ... 100 to 5000 nM
CN1CCC(NC(=O)N(Cc2coc(C3CC3)n2)Cc2ccc(OCC(F)(F)F)cc2F)CC1 [Compound I-112] ... < 10 nM
Cc1cc(CN(Cc2ccc(OCC(C)C)cc2)C(=O)NC2CCN(C)CC2)nn1C [Compound I-005] ... 10 to 100 nM
Cc1nc(CN(Cc2ccc(OCC(F)(F)C(F)(F)F)cc2F)C(=O)NC2CCN(C)CC2)co1 [Compound I-121] ... < 10 nM
CN1CCC(NC(=O)N(Cc2ccc3c(c2)OCO3)Cc2ccn(C)n2)CC1 [Compound I-026] ... 100 to 5000 nM
CC(C)COc1ccc(CN(Cc2cccs2)C(=O)NC2CCN(C)CC2)cc1 [Compound I-034] ... 10 to 100 nM
Cc1nc(CN(Cc2ccc(OCC(F)(F)C(F)(F)F)cc2)C(=O)NC2CCN(C)CC2)co1 [Compound I-088] ... < 10 nM
CC(C)COc1ccc(CN(Cc2ccn(C)n2)C(=O)NC2CCNCC2)cc1 [Compound I-079] ... < 10 nM
CC(C)COc1ccc(CN(Cc2ccn(C)n2)C(=O)N[C@H]2CCN(C)C[C@@H]2C)cc1 [Compound I-064] ... < 10 nM
CCCCOc1ccc(CN(Cc2coc(C)n2)C(=O)CCC2CCNCC2)cc1F [Compound I-127] ... 100 to 5000 nM

# compound CCCc1ccc(CN(Cc2coc(C)n2)C(=O)NC2CCN(C)CC2)cc1 [Compound I-108] ; its Ki = < 10 nM

# compound CCCCOc1ccc(CN(Cc2coc(C)n2)C(=O)CN2CCN(C)CC2)cc1 [Compound I-106] ; its Ki = < 10 nM

# compound CCCCOc1ccc(CN(Cc2cnn(C)n2)C(=O)NC2CCN(C)CC2)cc1F [Compound I-100] ; its Ki = < 10 nM

# compound CCCCOc1ccc(CN(Cc2coc(C)n2)C(=O)NC2CCN(C)CC2)c(F)c1 [Compound I-113] ; its Ki = < 10 nM

# compound CC(C)COc1ccc(CN(Cc2ccc(F)cn2)C(=O)NC2CCN(C)CC23CC3)cc1 (racemic) [Compound I-044] ; its Ki = < 10 nM

# compound Cc1ccc(CN(Cc2ccc(OCC(C)C)cc2)C(=O)NC2CCN(C)CC2)s1 [Compound I-008] ; its Ki = < 10 nM

====

test.target: human recombinant 5-HT2A receptor (Homo sapiens (Human))
Sequence (P28223 whole entry): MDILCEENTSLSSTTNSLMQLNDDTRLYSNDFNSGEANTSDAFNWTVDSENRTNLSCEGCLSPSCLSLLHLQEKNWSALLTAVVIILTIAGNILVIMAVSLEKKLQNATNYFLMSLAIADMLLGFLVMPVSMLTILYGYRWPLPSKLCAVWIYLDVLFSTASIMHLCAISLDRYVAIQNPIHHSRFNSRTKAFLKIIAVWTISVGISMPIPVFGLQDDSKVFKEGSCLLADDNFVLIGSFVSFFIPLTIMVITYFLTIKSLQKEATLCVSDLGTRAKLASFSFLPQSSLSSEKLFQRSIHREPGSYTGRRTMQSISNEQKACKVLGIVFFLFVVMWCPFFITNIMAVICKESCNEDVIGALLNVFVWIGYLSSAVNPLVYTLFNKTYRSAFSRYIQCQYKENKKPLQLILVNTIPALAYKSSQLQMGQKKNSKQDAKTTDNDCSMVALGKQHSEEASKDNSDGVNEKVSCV
test.name: 5-HT2A receptor binding inhibition test ([3H]-Ketanserin)
experimental.setup: Jump-In HEK cell membrane, read-out: h-5-HT2A Ki
Protocol: Test Example 1: 5-HT2A Receptor Binding Inhibition Test (Each Experimental Condition) Cell membrane: Jump-In HEK cell membrane (expressing human recombinant 5-HT2A receptor) […] Radioactive ligand: [^3H]-Ketanserin around Kd value calculated by the following method […] The Kd value was calculated when the lot of cell membrane was changed. […] The radioactivity of [^3H]-Ketanserin bound to the 5-HT2A receptor was measured using Microbeta2 (PerkinElmer) at a measurement time of 1 min/well. […]
readout.name: Ki

# compound Cc1nc(CN(Cc2ccc(OCC(C)C)cc2)C(=O)OC2CCN(C)CC2)co1 ; its Ki = < 0.01 µM

# compound CC(C)COc1ccc(CN(Cc2cccn2C)C(=O)NC2CCN(C)CC2)cc1 ; its Ki = < 0.01 µM

# compound CCCCOc1ccc(CN(Cc2coc(C)n2)C(=O)N[C@H]2CCN(C)CC23CC3)cc1F ; its Ki = < 0.01 µM

# compound CC(C)COc1ccc(CN(Cc2ccn(C)n2)C(=O)N[C@H]2CCNC[C@H]2F)cc1 ; its Ki = < 0.01 µM

# compound CC(C)COc1ccc(CN(Cc2ccc(F)cn2)C(=O)NC2CCNCC2)cc1 ; its Ki = < 0.01 µM

# compound CCCCOc1ccc(CN(Cc2coc(C)n2)C(=O)CCC2CCNCC2)cc1F ; its Ki = 0.01 to 0.1 µM

# compound CC(C)COc1ccc(CN(Cc2ccc(C#N)cn2)C(=O)NC2CCN(C)CC2)cc1 ; its Ki = 0.01 to 0.1 µM

# compound CC(C)COc1ccc(CN(Cc2ccn(C)n2)C(=O)N[C@H]2CCNCC23CC3)cc1 ; its Ki = < 0.01 µM

====

test.target: human recombinant 5-HT2A receptor (Homo sapiens (Human))
test.name: 5-HT2A receptor binding inhibition test ([3H]-Ketanserin)
experimental.setup: Jump-In HEK cell membrane, read-out: h-5-HT2A Ki
pKi: −log10 of the molar value.
Parameter: pKi. Scope: all listed entries.

Cc1cccnc1CN(Cc1ccc(OCC(C)C)cc1)C(=O)NC1CCN(C)CC1 ... > 8.00
CCCCOc1ccc(CN(Cc2coc(C)n2)C(=O)NC2CCN(C)CC2)c(F)c1 ... > 8.00
CC(C)COc1ccc(CN(Cc2ccn(C)n2)C(=O)NC2CCN(C3COC3)CC2)cc1 ... 5.30 to 7.00
CC(C)COc1ccc(CN(Cc2cccs2)C(=O)NC2CCN(C)CC2)cc1 ... > 8.00
Cc1cc(CN(Cc2ccc(OCC(C)C)cc2)C(=O)NC2CCN(C)CC2)no1 ... 7.00 to 8.00
CCCCOc1ccc(CN(Cc2coc(C)n2)C(=O)NC2CCN(C)CC2)cc1F ... > 8.00
CC(C)COc1ccc(CN(Cc2ccn(C)n2)C(=O)N[C@@H]2C[C@H]3CCC[C@@H](C2)N3C)cc1 ... > 8.00
CC(C)COc1ccc(CN(Cc2ccn(C)c2)C(=O)OC2CCN(C)CC2)cc1 ... > 8.00

# molecule COCCN1CCC(NC(=O)N(Cc2ccc(OCC(C)C)cc2)Cc2ccn(C)n2)CC1 ; its pKi = 7.00 to 8.00

# molecule CC(C)COc1ccc(CN(Cc2ccn(C)n2)C(=O)NC2CCN(C)C2)cc1 (racemic) ; its pKi = > 8.00

# molecule CC(C)COc1ccc(CN(Cc2ccc(F)cn2)C(=O)N[C@@H]2CCNC[C@@H]2F)cc1 (single isomer, unassigned) ; its pKi = 7.00 to 8.00
